biological target: Tau; assay: rat primary cortical neurons, FLIPR, 25 uM ASO
Bases are written 5' to 3'; sugars and linkages follow in the same order, as letters with counts (s phosphorothioate, o phosphodiester; PS: all linkages phosphorothioate). The collection does not say whether C is 5-methylated. l = locked nucleic acid (LNA); d = 2'-deoxy (DNA)
Below: a set of entries, each annotated with reported calcium oscillation score.

Answered cases to consult:
> print(dat)
                             residue.string  system.under.test    observed.result
1  ATCAATTCTCATTTCAACCT (sugars l3 d15 l2, PS)                Tau  70.7 % of control
2  CCATTTTCCATATAATTT (sugars l4 d10 l4, PS)                Tau  70.7 % of control
3  CAAACCAACTCAACATTACC (sugars l4 d14 l2, PS)                Tau  94.7 % of control
4  TTGAAGTCAAGCTTCTCAGA (sugars l3 d14 l3, PS)                Tau     0 % of control
5   TCAGTCCTAATCCTGT (sugars l3 d10 l3, PS)                Tau  53.3 % of control

Looking up CTCAGGTCAACTGGTT (sugars l3 d10 l3, PS) , I see its calcium oscillation score listed as 83.8 % of control

====

target: Tau; experiment: rat primary cortical neurons, FLIPR, 25 uM ASO
Bases are written 5' to 3'; sugars and linkages follow in the same order, as letters with counts (s phosphorothioate, o phosphodiester; PS: all linkages phosphorothioate). The collection does not say whether C is 5-methylated. l = locked nucleic acid (LNA); d = 2'-deoxy (DNA)
Below: a set of entries, each annotated with reported calcium oscillation score.

> print(dat)
                             residue.string  system.under.test               readout.type    observed.result
1   CCCCAGACCATCAATT (sugars l2 d12 l2, PS)                Tau  calcium oscillation score  57.7 % of control
2  CGAGTCTACCATGTCGATGC (sugars l3 d14 l3, PS)                Tau  calcium oscillation score  78.5 % of control
3      CGCTTCCAGTCCCG (sugars l3 d8 l3, PS)                Tau  calcium oscillation score   107 % of control

# next sequence below
Looking up ACTCTAAGTAGACCCTGGCC (sugars l3 d14 l3, PS) , I see its calcium oscillation score listed as 4.76 % of control

====

Below: a set of entries, each annotated with reported calcium oscillation score.
biological target: Tau; test: rat primary cortical neurons, FLIPR, 25 uM ASO
Bases are written 5' to 3'; sugars and linkages follow in the same order, as letters with counts (s phosphorothioate, o phosphodiester; PS: all linkages phosphorothioate). The collection does not say whether C is 5-methylated. l = locked nucleic acid (LNA); d = 2'-deoxy (DNA)

Answered cases to consult:
> print(dat)
                             residue.string    observed.result
1  CAGAGCTGGGTGGTGTCTTT (sugars l3 d14 l3, PS)     0 % of control
2  ATATTGTCCAGGGACCCAAT (sugars l3 d14 l3, PS)  19.9 % of control
3  CCACCTCATTAAGATCA (sugars l3 d12 l2, PS)    56 % of control

Looking up TCCTCCATTGTAACTA (sugars l4 d10 l2, PS) , I see its calcium oscillation score listed as 85.3 % of control

Looking up CCAAACTTTTACTCTGA (sugars l4 d10 l3, PS) , I see its calcium oscillation score listed as 44.5 % of control

Looking up CATGAGCACTAACTCTAAGT (sugars l3 d14 l3, PS) , I see its calcium oscillation score listed as 47.6 % of control

Looking up ATTTTTACCAATTTGCC (sugars l2 d11 l4, PS) , I see its calcium oscillation score listed as 57 % of control
